B1: Gamma-crystallin D, residues 90 to 170; numbered along this chain, P07320 (parent)
chain: IRLYEREDYRGQMIEFTEDCSCLQDRFRFNEIHSLNVLEGSWVLYELSNYRGRQYLLMPGDYRRYQDWGATNARVGSLRRV

Variants of: B1
ASSAY DETAILS: abundance fitness (aPCA) (normalised: wild type 0, dead -1); higher = more abundant; growth selection in yeast, the domain comes from the species named
EXPERIMENTAL PARAMETERS: Homo sapiens
// abundance fitness lookup, one value per entry
Hey, just send me the number, nothing else.

Y55Q | -0.006
S48G | -0.049
R6I | -0.047
C22M | 0.091
Y9T | 0.179
R51S | -0.039
P59F | -0.353
D19Q | 0.041

### Prompt Which abundance fitness is reported for this variant? F29S
### Response 0.093

### Prompt For F29E , what is its reported abundance fitness?
### Response 0.05

### Prompt # get_value(readout='abundance fitness', item= C20N )
### Response 0.042

### Prompt Suppose we examine the variant G40N ; what abundance fitness value has been reported?
### Response -0.228

### Prompt // query abundance fitness value for entry M13T
### Response -0.122

### Prompt What value of abundance fitness has been reported for the following variant? R26P
### Response 0.071
